# measurementProtocol: protein stability index of a GFP-peptide fusion (yeast GPS) (PSI 1-4); higher = more stable; sorted into four equal gates, so the index is relative within each strain
# measurementParameters: pdr5∆
metric: protein stability index
Form field (numeric): enter value without unit.

DGFNKTFHDELNLKFKE [YML103C/NUP188]
2.38

# evaluate next
Q. State its protein stability index for this sequence: VPSYIHVEKERASTELS [YIL149C/MLP2]
A. 2.46

----------
Listed here: items and their measured protein stability index.
# measurementProtocol: protein stability index of a GFP-peptide fusion (yeast GPS) (PSI 1-4); higher = more stable; sorted into four equal gates, so the index is relative within each strain
# measurementParameters: doa10∆

Worked cases, protein stability index given:
SRTRAHAQSKREGRHSG [RPL19A]
2.87
RRSKMNPLWNAIIVAGV [PRE4]
2.87
DLKASQRVCLRSDSYML [RPT6]
2.92
HYLVLLVAKFLYPIFLL [YJR042W/NUP85]
1.4
DDDEIVMPVPNVRSSVL [SKP1]
2.42
INKNSKIALREYINNCK [POP4]
2.04
EHFSHFGHIMEDFQVLR [YDL088C/ASM4]
3.03
QRGKWNLKYLDNSNVMT [RGR1]
2.37

Q. State its protein stability index for this sequence: LKSQMDTSKALLNVSVN [SKI6]
A. 3.22

Q. State its protein stability index for this sequence: ISIFSTPGSVSLSAYNL [PRP8]
A. 2.61

----------
# measurementProtocol: protein stability index of a GFP-peptide fusion (yeast GPS) (PSI 1-4); higher = more stable; sorted into four equal gates, so the index is relative within each strain
# measurementParameters: pdr5∆
In this scheme, each record receives a class according to its protein stability index; the ranges are bucket A (below 2), bucket B (2 to below 3), bucket C (3 or more)

Q. Form: Item = LIAEETNNKKLLEKANN [SMC3] ; Class = ?
A. bucket B

Q. Form: Item = PFLLMELHKKLVEAAKL [YDL116W/NUP84] ; Class = ?
A. bucket A

Q. Form: Item = VDQNPLTMHKIIQLILW [SRB8] ; Class = ?
A. bucket A

Q. Form: Item = LDEIFSGCDSTKPSLRK [ECM29] ; Class = ?
A. bucket B

Q. Form: Item = RELREVIELPLKNPEIF [RPT4] ; Class = ?
A. bucket C

----------
# measurementProtocol: protein stability index of a GFP-peptide fusion (yeast GPS) (PSI 1-4); higher = more stable; sorted into four equal gates, so the index is relative within each strain
# measurementParameters: doa10∆
metric: protein stability index
Form field (numeric): enter value without unit.

ELAESTTTKIIDSTDHI [LRP1]
2.95

Q. State its protein stability index for this sequence: NKKIYQWNKLTSFDIKR [POP6]
A. 2.93

Q. State its protein stability index for this sequence: SIQPIESNIKMTLEDNN [SSN2]
A. 3.12

Q. State its protein stability index for this sequence: GSHLFSIHAHGSTDVGY [PUP1]
A. 2.58

Q. State its protein stability index for this sequence: FDQAGKKVSRRNARAAR [RPL13B]
A. 3.08

Q. State its protein stability index for this sequence: VARFLHFNGIRRLDALV [ITC1]
A. 3.44

Q. State its protein stability index for this sequence: PNKVKTEDIRIRAQNFK [RRP6]
A. 2.75

Q. State its protein stability index for this sequence: AFHLHCINKWIKTRDAC [HRT1]
A. 1.86
